pIC50: −log10 of the molar value.
The following compounds each carry a recorded pIC50 for DYRK1A (Homo sapiens, UniProt Q13627).

Worked set:
| compound | measuredEndpoint | measurement |
| --- | --- | --- |
| Nc1ncnc2c1c(C#CC1CC1)cn2[C@@H]1S[C@H](CO)[C@@H](O)[C@H]1O | pIC50 | < 5.00 |
| COc1ncc2cc(C(=O)Nc3cc(C(=O)NCc4cccc(Cl)c4)ccc3Cl)c(=O)[nH]c2n1 [TC-S 7004, reference compound] | pIC50 | > 8.00 |

Okay, next one:
Fill in: pIC50 on DYRK1A (Homo sapiens, UniProt Q13627), entry Cc1ccc(NC(=O)Nc2cc(C(F)(F)F)ccc2F)cc1Nc1ccc2c(c1)NC(=O)/C2=C\c1ccc[nH]1 [GNF 5837, reference compound] < 5.00
